Entries and their hNE/PPE selectivity values follow.
- TARGET OR SYSTEM: porcine pancreatic elastase (Sus scrofa, UniProt P00772)
- Construct: purchased Sigma, USA
- Sequence (P00772 27-266): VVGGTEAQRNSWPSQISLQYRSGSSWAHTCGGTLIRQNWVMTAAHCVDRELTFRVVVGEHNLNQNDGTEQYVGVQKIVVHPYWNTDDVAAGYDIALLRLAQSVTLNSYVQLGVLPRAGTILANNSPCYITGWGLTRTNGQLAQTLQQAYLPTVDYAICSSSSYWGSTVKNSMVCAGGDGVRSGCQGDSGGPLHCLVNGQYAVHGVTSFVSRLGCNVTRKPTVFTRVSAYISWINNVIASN
- MEASUREMENT DESCRIPTION: Inhibition of porcine pancreatic elastase (hydrolysis of MeOSuc-AAA-pNA)
- Format: biochemical
- ASSAY SETUP: ratio of PPE IC50 to hNE IC50
- Procedure: 2.3 Inhibition of Porcine Pancreatic Elastase The ability of the peptides of the invention to inhibit the hydrolysis activity of porcine pancreatic elastase (Sigma, USA) using the synthetic tripeptidic substrate MeOSuc-AAA-pNA (Bachem, Switzerland) was determined as follows: The above substrate (1 mM) and […] porcine pancreatic elastase (15 nM) were incubated at 37° C. with serial dilutions of the peptides (0.5% DMSO final) in assay buffer (50 mM Tris, pH8, 100 mM NaCl, 0.01% Tween20). […]
*1 amine or outer side, *2 acyl side, *3 side chain or, on linkers, in order; H or OH if unused. Where a SMILES comes first, the peptide text is derived from it. [ ]: non-standard residue; d: D form. X3 = O=C(CC[C@H](Cc1ccc(O)cc1)N[*:1])[*:2]; Gly(octyl) = CCCCCCCC[C@H](N)C(=O)O; hTyr = N[C@@H](CCc1ccc(O)cc1)C(=O)O; β3hP = O=C(O)C[C@@H]1CCCN1; hSer = N[C@@H](CCO)C(=O)O; Nlys = NCCCCNCC(=O)O
Note: the reply should be a number with no unit written.

Study these solved cases before continuing.
MOLECULE	hNE/PPE selectivity
CCCCCCCC[C@@H]1NC(=O)[C@@H]2CCCN2C(=O)[C@H]2CCCN2C(=O)CC[C@H](Cc2ccc(O)cc2)NC(=O)[C@H](CCCCN)NC(=O)[C@H](CCC(N)=O)NC(=O)[C@@H]2CCCN2C(=O)[C@@H]2CCCN2C(=O)[C@H]([C@@H](C)CC)NC(=O)[C@H](CO)NC(=O)[C@H](C)NC(=O)[C@H]([C@@H](C)O)NC(=O)[C@H](CCC(=O)O)NC1=O [Example 8] (cyclo([Gly(octyl)]ETASIPPQK[X3][dP]P))	91
CCCCCCCC[C@@H]1NC(=O)[C@H](C)NC(=O)[C@@H](C)NC(=O)[C@H]([C@@H](C)O)NC(=O)[C@H](CCCCN)NC(=O)[C@H](CCC(N)=O)NC(=O)[C@@H]2CCCN2C(=O)[C@@H]2CCCN2C(=O)[C@H]([C@@H](C)CC)NC(=O)[C@H](CO)NC(=O)[C@H](C)NC(=O)[C@H]([C@@H](C)O)NC(=O)[C@H](CCC(=O)O)NC1=O [Example 20] (cyclo([Gly(octyl)]ETASIPPQKT[dA]A))	2128
CCCCCCCC[C@@H]1NC(=O)[C@@H]2CCCN2C(=O)[C@H]2CCCN2C(=O)[C@H](CCOC)NC(=O)[C@H](CCCCN)NC(=O)[C@H](CCC(N)=O)NC(=O)[C@@H]2CCCN2C(=O)[C@@H]2CCCN2C(=O)[C@H]([C@@H](C)CC)NC(=O)[C@H](CO)NC(=O)[C@H](C)NC(=O)[C@H]([C@@H](C)O)NC(=O)[C@H](CCC(=O)O)NC1=O [Example 1] (cyclo([Gly(octyl)]ETASIPPQK[hSer](Me)[dP]P))	129
CCCCCCCC[C@@H]1NC(=O)[C@H](C(C)C)NC(=O)[C@@H](Cc2ccc(O)cc2)NC(=O)[C@H]([C@@H](C)O)NC(=O)[C@H](CCCCN)NC(=O)[C@H](CCC(N)=O)NC(=O)[C@@H]2CCCN2C(=O)[C@@H]2CCCN2C(=O)[C@H]([C@@H](C)CC)NC(=O)[C@H](CO)NC(=O)[C@H](C)NC(=O)[C@H]([C@@H](C)O)NC(=O)[C@H](CCC(=O)O)NC1=O [Example 23] (cyclo([Gly(octyl)]ETASIPPQKT[dY]V))	1717
CCCCCCCC[C@@H]1NC(=O)[C@@H]2CCCN2C(=O)[C@H]2CCCN2C(=O)[C@H]([C@@H](C)O)NC(=O)[C@H](CCCCN)NC(=O)[C@H](CCC(N)=O)NC(=O)[C@@H]2CCCN2C(=O)CN(CCCCN)C(=O)[C@H]([C@@H](C)CC)NC(=O)[C@H](CO)NC(=O)[C@H](C)NC(=O)[C@H]([C@@H](C)O)NC(=O)[C@H](CCC(=O)O)NC1=O [Example 33] (cyclo([Gly(octyl)]ETASI[Nlys]PQKT[dP]P))	1186
CC[C@H](C)[C@@H]1NC(=O)[C@H](CO)NC(=O)[C@H](C)NC(=O)[C@H]([C@@H](C)O)NC(=O)[C@H](CCc2ccc(O)cc2)NC(=O)[C@H](CCCNC(=N)N)NC(=O)[C@H](CCC(=O)O)NC(=O)[C@H]2CCCN2C(=O)[C@H]([C@@H](C)O)NC(=O)[C@H](CCCCN)NC(=O)[C@H](CCC(N)=O)NC(=O)[C@@H]2CCCN2C(=O)[C@@H]2CCCN2C1=O [Example 49] (cyclo(R[hTyr]TASIPPQKT[dP]E))	2490

Record CCCCCCCC[C@@H]1NC(=O)C[C@@H]2CCCN2C(=O)[C@H]2CCCN2C(=O)[C@H]([C@@H](C)O)NC(=O)[C@H](CCCCN)NC(=O)[C@H](CCC(N)=O)NC(=O)[C@@H]2CCCN2C(=O)[C@@H]2CCCN2C(=O)[C@H]([C@@H](C)CC)NC(=O)[C@H](CO)NC(=O)[C@H](C)NC(=O)[C@H]([C@@H](C)O)NC(=O)[C@H](CCC(=O)O)NC1=O [Example 39] (cyclo([Gly(octyl)]ETASIPPQKT[dP][β3hP])) ; system porcine pancreatic elastase (Sus scrofa, UniProt P00772); hNE/PPE selectivity = 30310

hNE/PPE selectivity value, target or system porcine pancreatic elastase (Sus scrofa, UniProt P00772), for CCCCCCCC[C@@H]1NC(=O)[C@H](Cc2ccc(O)cc2)NC(=O)[C@@H](CO)NC(=O)[C@H]([C@@H](C)O)NC(=O)[C@H](CCCCN)NC(=O)[C@H](CCC(N)=O)NC(=O)[C@@H]2CCCN2C(=O)[C@@H]2CCCN2C(=O)[C@H]([C@@H](C)CC)NC(=O)[C@H](CO)NC(=O)[C@H](C)NC(=O)[C@H]([C@@H](C)O)NC(=O)[C@H](CCC(=O)O)NC1=O [Example 31] (cyclo([Gly(octyl)]ETASIPPQKT[dS]Y)) : 2275

###

List of pIC50 values.
- TARGET OR SYSTEM: human neutrophil elastase (Homo sapiens, UniProt P08246)
- Sequence (P08246 30-267): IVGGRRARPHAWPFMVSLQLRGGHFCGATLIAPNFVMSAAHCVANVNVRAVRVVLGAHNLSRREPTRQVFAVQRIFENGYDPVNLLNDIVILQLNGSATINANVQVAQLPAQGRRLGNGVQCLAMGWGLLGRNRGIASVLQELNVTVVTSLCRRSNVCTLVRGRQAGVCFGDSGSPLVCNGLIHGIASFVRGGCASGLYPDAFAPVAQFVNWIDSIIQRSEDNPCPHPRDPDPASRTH
- MEASUREMENT DESCRIPTION: Inhibition of human neutrophil elastase (hydrolysis of MeOSuc-AAPV-pNA)
- ASSAY SETUP: substrate MeOSuc-AAPV-pNA 0.3 mM, enzyme 10 nM, 37° C., pH 8; read-out: Human neutrophil elastase (hNE) IC50
Where a SMILES comes first, the peptide text is derived from it. [ ]: non-standard residue; d: D form. Oic = O=C(O)[C@@H]1C[C@@H]2CCCC[C@@H]2N1; Gly(octyl) = CCCCCCCC[C@H](N)C(=O)O; hTyr = N[C@@H](CCc1ccc(O)cc1)C(=O)O; AllylGly = C=CC[C@H](N)C(=O)O; Pip = O=C(O)[C@@H]1CCCCN1; Dap = NC[C@H](N)C(=O)O; Nlys = NCCCCNCC(=O)O
Lab note — pIC50 values are minus log10 of concentrations in M.

COMPOUND	pIC50
CCCCCCCC[C@@H]1NC(=O)[C@@H]2CCCN2C(=O)[C@H]2CCCN2C(=O)[C@H](CC(N)=O)NC(=O)[C@H](CCCCN)NC(=O)[C@H](CCC(N)=O)NC(=O)[C@@H]2CCCN2C(=O)[C@@H]2CCCN2C(=O)[C@H]([C@@H](C)CC)NC(=O)[C@H](CO)NC(=O)[C@H](C)NC(=O)[C@H]([C@@H](C)O)NC(=O)[C@H](CCc2ccc(O)cc2)NC1=O [Example 48] (cyclo([Gly(octyl)][hTyr]TASIPPQKN[dP]P))	8.57

Record summary for CCCCCCCC[C@@H]1NC(=O)[C@@H]2CCCN2C(=O)[C@H]2CCCN2C(=O)[C@H]([C@@H](C)O)NC(=O)[C@H](CCCCN)NC(=O)[C@H](CCC(N)=O)NC(=O)CN(CCCCN)C(=O)[C@@H]2CCCN2C(=O)[C@H]([C@@H](C)CC)NC(=O)[C@H](CO)NC(=O)[C@H](C)NC(=O)[C@H]([C@@H](C)O)NC(=O)[C@H](CCC(=O)O)NC1=O [Example 35] (cyclo([Gly(octyl)]ETASIP[Nlys]QKT[dP]P)) : reported pIC50 = 8.11

// sample C=CC[C@@H]1NC(=O)[C@H]([C@@H](C)O)NC(=O)[C@H](CCC(=O)O)NC(=O)[C@H](CCC(=O)N[C@@H](Cc2ccccc2)C(=O)O)NC(=O)[C@@H]2CCCN2C(=O)[C@H]2CCCN2C(=O)[C@H](Cc2ccc(O)cc2)NC(=O)[C@H](CCCCN)NC(=O)[C@H](CCC(N)=O)NC(=O)[C@@H]2CCCN2C(=O)[C@@H]2CCCN2C(=O)[C@H]([C@@H](C)CC)NC(=O)[C@H](CO)NC1=O [Example 17] (cyclo(E(Phe)ET[AllylGly]SIPPQKY[dP]P)) , its pIC50 was 7.82

Record CC[C@H](C)[C@@H]1NC(=O)[C@H](CO)NC(=O)[C@H](C)NC(=O)[C@H]([C@@H](C)O)NC(=O)[C@H](CCc2ccc(O)cc2)NC(=O)[C@H](CCCNC(=N)N)NC(=O)[C@H](CCC(=O)O)NC(=O)[C@H]2CCCN2C(=O)[C@H]([C@@H](C)O)NC(=O)[C@H](CCCCN)NC(=O)[C@H](CCC(N)=O)NC(=O)[C@@H]2C[C@@H]3CCCC[C@@H]3N2C(=O)[C@@H]2CCCN2C1=O [Example 43] (cyclo(R[hTyr]TASIP[Oic]QKT[dP]E)) , field pIC50: 8.57

Value of measured pIC50 for the entry CCCCCCCC[C@@H]1NC(=O)[C@@H]2CCCN2C(=O)[C@H]2CCCN2C(=O)[C@H](Cc2ccc(O)cc2)NC(=O)[C@H](CCCCN)NC(=O)[C@H](CCC(N)=O)NC(=O)[C@@H]2CCCN2C(=O)[C@@H]2CCCN2C(=O)[C@H]([C@@H](C)CC)NC(=O)[C@H](CO)NC(=O)[C@H](C)NC(=O)[C@H]([C@@H](C)O)NC(=O)[C@H](CNC(=O)[C@@H](N)Cc2ccccc2)NC1=O [Example 14] (cyclo([Gly(octyl)][Dap](Phe)TASIPPQKY[dP]P)) : 7.82

Sure, the documented pIC50 for CCCCCCCC[C@@H]1NC(=O)[C@@H]2CCCN2C(=O)[C@H]2CCCN2C(=O)[C@H]([C@@H](C)O)NC(=O)[C@H](CCCCN)NC(=O)[C@H](CCC(N)=O)NC(=O)[C@@H]2CCCCN2C(=O)[C@@H]2CCCN2C(=O)[C@H]([C@@H](C)CC)NC(=O)[C@H](CO)NC(=O)[C@H](C)NC(=O)[C@H]([C@@H](C)O)NC(=O)[C@H](CCC(=O)O)NC1=O [Example 45] (cyclo([Gly(octyl)]ETASIP[Pip]QKT[dP]P)) is 8.15

response.value for CCCCCCCC[C@@H]1NC(=O)[C@@H](CCC(=O)O)NC(=O)[C@H]2CCCN2C(=O)[C@H]([C@@H](C)O)NC(=O)[C@H](CCCCN)NC(=O)[C@H](CCC(N)=O)NC(=O)[C@@H]2CCCN2C(=O)[C@@H]2CCCN2C(=O)[C@H]([C@@H](C)CC)NC(=O)[C@H](CO)NC(=O)[C@H](C)NC(=O)[C@H]([C@@H](C)O)NC(=O)[C@H](CCC(=O)O)NC1=O [Example 40] (cyclo([Gly(octyl)]ETASIPPQKT[dP][dE])) (field: pIC50) = 8.89

In plain terms, CCCCCCCC[C@@H]1NC(=O)[C@H](CCCCN)NC(=O)[C@@H](C(C)C)NC(=O)[C@H]([C@@H](C)O)NC(=O)[C@H](CCCCN)NC(=O)[C@H](CCC(N)=O)NC(=O)[C@@H]2CCCN2C(=O)[C@@H]2CCCN2C(=O)[C@H]([C@@H](C)CC)NC(=O)[C@H](CO)NC(=O)[C@H](C)NC(=O)[C@H]([C@@H](C)O)NC(=O)[C@H](CCC(=O)O)NC1=O [Example 22] (cyclo([Gly(octyl)]ETASIPPQKT[dV]K)) has a documented pIC50 of 7.91

pIC50 reading for CC[C@H](C)[C@@H]1NC(=O)[C@H](CO)NC(=O)[C@H](C)NC(=O)[C@H]([C@@H](C)O)NC(=O)[C@H](C(C)C)NC(=O)[C@H](CCCNC(=N)N)NC(=O)[C@@H]2CCCN2C(=O)[C@H]2CCCN2C(=O)[C@H]([C@@H](C)O)NC(=O)[C@H](CCCCN)NC(=O)[C@H](CCC(N)=O)NC(=O)[C@@H]2C[C@@H]3CCCC[C@@H]3N2C(=O)[C@@H]2CCCN2C1=O [Example 41] (cyclo(RVTASIP[Oic]QKT[dP]P)) : 8.10
